Molecular target: T1, L-selectin (LS-Rg) (Homo sapiens, UniProt P14151 P14151:39-332)
T1 sequence: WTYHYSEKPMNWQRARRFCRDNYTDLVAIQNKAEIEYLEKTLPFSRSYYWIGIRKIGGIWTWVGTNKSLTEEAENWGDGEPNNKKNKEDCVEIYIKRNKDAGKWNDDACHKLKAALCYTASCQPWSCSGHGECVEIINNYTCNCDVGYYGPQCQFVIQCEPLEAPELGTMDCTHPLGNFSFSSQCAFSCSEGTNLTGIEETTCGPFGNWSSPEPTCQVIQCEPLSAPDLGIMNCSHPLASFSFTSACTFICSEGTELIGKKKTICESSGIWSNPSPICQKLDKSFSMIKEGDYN
Assay: filter; 37 C; lacks 7-nt bulge
Conditions: tags: human IgG2 Fc fusion; chain copies: dimer; label: 32P; hairpin lacking bulge
measurement_kind: pKd
API: returns pKd as number; meaning -log10 of concentration in mol/L.

Looking up LF1512 (ssRNA, 2'-F on all C and U) RNA: GGGAGGACGAUGCGGCACACGUGUUUUCAAGUGUGCUCCUGGGAUCAGACGACUCGCCCGA , I found its pKd recorded as 6.50
